- ASSAY_TARGET: AHR (Homo sapiens)
- Construct: U87 MG glioblastoma cells (ATCC #HTB-14) endogenously expressing AHR; endogenous in cells; host or cells: U87 MG glioblastoma cells (ATCC #HTB-14)
- EXPERIMENTAL_PROTOCOL: In vitro assay 1: antagonism in human cell line (AHR transactivation, firefly luciferase reporter, kynurenic acid prestimulated)
- Assay type: cell-based
- COND: AHR Antagonism Human IC50 [M]
ASSAY_METRIC: IC50 (M)

{"columns": ["MOLECULE", "ASSAY_METRIC", "UNIT_OF_MEASUREMENT", "MEASURED_VALUE"],
 "data": [
  ["O=C1NCCCC[C@@H]1Nc1nc2ccccc2c2nc(-c3cccc(F)c3)nn12 [Example 10]", "IC50", "M", "2.71e-08"]
]}

I = COc1ccc(-c2nc3c4cc(Cl)ccc4nc(N[C@@H]4CNCCNC4=O)n3n2)cc1 [Example 278]
II = CCCNC(=O)[C@@H](C)Nc1nc2c(Br)cccc2c2nc(-c3ccc(Cl)cc3OC(F)(F)F)nn12 [Example 693]
III = CS(=N)(=O)c1ccc(-c2nc3c4ccccc4nc(N[C@@H]4CCCCNC4=O)n3n2)cc1 (single isomer, unassigned) [Example 307]
IV = COc1ccc(-c2nc3c4ccccc4nc(NC4CCCNC4=O)n3n2)cc1 (single isomer, unassigned) [Example 38]
V = Cc1nn(C)c(C)c1-c1nc2c3cccc(C(F)(F)F)c3nc(N[C@@H]3CCCCNC3=O)n2n1 [Example 750]
Task item: # rank_down: sort by IC50, max first Please, when replying, give the labels in the order that was requested.
Reply: I, III, IV, II, V

###

- ASSAY_TARGET: AHR (Mus musculus, UniProt P30561)
- Sequence (P30561 whole entry P471L/N533S/M589L, form open): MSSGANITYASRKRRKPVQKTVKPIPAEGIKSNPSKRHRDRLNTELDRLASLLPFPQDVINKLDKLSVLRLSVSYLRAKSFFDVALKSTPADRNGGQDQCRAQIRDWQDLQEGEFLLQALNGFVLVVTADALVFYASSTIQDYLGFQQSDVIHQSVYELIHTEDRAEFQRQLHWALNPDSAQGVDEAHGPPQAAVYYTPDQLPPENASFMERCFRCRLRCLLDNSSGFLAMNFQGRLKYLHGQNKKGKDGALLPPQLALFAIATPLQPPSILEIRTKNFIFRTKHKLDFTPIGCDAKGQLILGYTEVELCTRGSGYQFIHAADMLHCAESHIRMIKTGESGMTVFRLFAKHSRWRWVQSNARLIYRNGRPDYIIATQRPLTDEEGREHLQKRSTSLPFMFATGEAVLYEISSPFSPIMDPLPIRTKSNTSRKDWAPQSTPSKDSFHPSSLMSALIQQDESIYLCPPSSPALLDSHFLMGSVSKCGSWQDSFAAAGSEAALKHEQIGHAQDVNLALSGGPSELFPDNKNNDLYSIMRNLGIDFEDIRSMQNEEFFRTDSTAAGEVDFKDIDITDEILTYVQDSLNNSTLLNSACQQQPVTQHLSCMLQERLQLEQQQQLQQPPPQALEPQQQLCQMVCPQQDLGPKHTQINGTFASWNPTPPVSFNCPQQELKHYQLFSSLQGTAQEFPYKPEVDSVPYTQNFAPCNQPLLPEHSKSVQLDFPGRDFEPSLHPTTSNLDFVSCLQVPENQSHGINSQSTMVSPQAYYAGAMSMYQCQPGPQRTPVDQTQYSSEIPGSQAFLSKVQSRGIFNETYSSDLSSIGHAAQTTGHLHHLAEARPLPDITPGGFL
- EXPERIMENTAL_PROTOCOL: In vitro assay 3: antagonism in mouse cell line (AHR transactivation, firefly luciferase reporter, kynurenic acid prestimulated)
- Format: cell-based
- COND: mouse Hepa 1c1c7 cells, 200 μM kynurenic acid, 20 hours, read-out: AHR Antagonism Mouse IC50
ASSAY_METRIC: IC50 (nM)

{"columns": ["COMPOUND", "IC50 (nM)"],
 "data": [
  ["CN(C)c1cccc(-c2nc3c4ccccc4nc(N[C@@H]4CCCCNC4=O)n3n2)c1 [Example 446]", 0.51]
]}

A = O=C1NCCCC[C@@H]1Nc1nc2ccccc2c2nc(-c3ccc(Cl)cc3OC(F)(F)F)nn12 [Example 518]
B = O=C1NCCNC[C@H]1Nc1nc2c(C(F)(F)F)cccc2c2nc(-c3cccc(F)c3)nn12 [Example 424]
Task item: Identify the item whose IC50 is the smaller number: A or B Returns: label corresponding to the selected item.
Reply: B
(B: 1.69 nM, A: 7.94 nM)

A = COc1ccc(-c2nc3c4c(C)cccc4nc(N[C@@H]4CNCCNC4=O)n3n2)cc1 [Example 290]
B = CCCCNC(=O)CNc1nc2ccccc2c2nc(-c3ccccc3OC(F)(F)F)nn12 [Example 466]
Task item: Of the two listed items, A and B , which carries the larger IC50 figure? Returns: label corresponding to the selected item.
Reply: A
(A: 288 nM, B: 107 nM)

###

- ASSAY_TARGET: AHR (Homo sapiens, UniProt P35869)
- Construct: U87 MG glioblastoma cells (ATCC #HTB-14) endogenously expressing AHR; endogenous in cells; host or cells: U87 MG glioblastoma cells (ATCC #HTB-14)
- Sequence (P35869 11-848): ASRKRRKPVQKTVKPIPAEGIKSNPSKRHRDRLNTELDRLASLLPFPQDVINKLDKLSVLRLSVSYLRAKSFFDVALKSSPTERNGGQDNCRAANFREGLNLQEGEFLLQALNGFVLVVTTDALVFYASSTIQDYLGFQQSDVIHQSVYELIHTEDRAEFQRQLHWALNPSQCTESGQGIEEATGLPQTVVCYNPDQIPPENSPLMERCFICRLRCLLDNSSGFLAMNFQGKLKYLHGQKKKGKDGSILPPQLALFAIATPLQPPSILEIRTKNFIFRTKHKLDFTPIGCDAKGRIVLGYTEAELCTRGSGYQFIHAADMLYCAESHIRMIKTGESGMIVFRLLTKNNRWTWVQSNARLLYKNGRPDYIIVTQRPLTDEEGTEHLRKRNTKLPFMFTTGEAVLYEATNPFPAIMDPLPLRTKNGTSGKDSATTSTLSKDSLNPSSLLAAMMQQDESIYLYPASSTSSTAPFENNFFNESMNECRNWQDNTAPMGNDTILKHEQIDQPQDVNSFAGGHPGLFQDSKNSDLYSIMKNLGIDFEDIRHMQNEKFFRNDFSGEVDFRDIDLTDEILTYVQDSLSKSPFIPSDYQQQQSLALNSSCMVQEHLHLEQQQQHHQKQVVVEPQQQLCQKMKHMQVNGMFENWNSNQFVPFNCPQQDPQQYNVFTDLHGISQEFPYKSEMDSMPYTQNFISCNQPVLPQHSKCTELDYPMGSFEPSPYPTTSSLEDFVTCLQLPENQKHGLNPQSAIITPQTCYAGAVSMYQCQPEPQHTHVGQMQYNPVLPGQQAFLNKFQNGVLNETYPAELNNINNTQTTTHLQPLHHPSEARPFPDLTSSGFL
- EXPERIMENTAL_PROTOCOL: In vitro assay 1: antagonism in human cell line (AHR transactivation, firefly luciferase reporter, kynurenic acid prestimulated)
- Type: cell-based
- COND: AHR Antagonism Human IC50 [M], firefly luciferase reporter
ASSAY_METRIC: IC50 (M)

{"columns": ["COMPOUND", "UNIT_OF_MEASUREMENT", "IC50"],
 "data": [
  ["C[C@@H](Nc1nc2c(Br)cccc2c2nc(-c3cnn(C)c3)nn12)C(=O)N1CC2(COC2)C1", "M", "3.76e-08"]
]}

a = N#Cc1cccc2c1nc(N[C@@H]1CNCCNC1=O)n1nc(-c3cnn(C4CC4)c3)nc21
b = COc1ccc(-c2nc3c4cccc(Br)c4nc(N[C@@H](C(=O)O)C(C)C)n3n2)cc1
c = O=C1NCCNC[C@H]1Nc1nc2c(C3CC3)cccc2c2nc(-c3cnn(CC4CC4)c3)nn12
Task item: Please produce an ascending ranking of these compounds based on IC50. Please, when replying, give the labels in the order that was requested.
Reply: b, c, a

a = COc1ccc(-c2nc3c4cccc(Br)c4nc(N[C@H](C)C(=O)N4CCN(C(=O)OC(C)(C)C)CC4)n3n2)cc1
b = CC(C)[C@@H](Nc1nc2c(Br)cccc2c2nc(-c3cnn(C)c3)nn12)C(=O)N1CCN(C)CC1
c = CC(C)S(=O)(=O)c1cccc2c1nc(N[C@@H]1CCCCNC1=O)n1nc(-c3cnn(C)c3)nc21
d = COc1ccc(-c2nc3c4cccc(C5COC5)c4nc(N[C@@H]4CCCCNC4=O)n3n2)cc1
Task item: Please produce an ascending ranking of these compounds based on IC50. Please, when replying, give the labels in the order that was requested.
Reply: d, a, b, c

###

- ASSAY_TARGET: AHR (Homo sapiens, UniProt P35869)
- Construct: U87 MG glioblastoma cells (ATCC #HTB-14) endogenously expressing AHR; endogenous in cells; host or cells: U87 MG glioblastoma cells (ATCC #HTB-14)
- EXPERIMENTAL_PROTOCOL: In vitro assay 1: antagonism in human cell line (AHR transactivation, firefly luciferase reporter, kynurenic acid prestimulated)
- Assay type: cell-based
- COND: AHR Antagonism Human IC50 [M]
ASSAY_METRIC: IC50 (M)

Worked examples follow.
{"columns": ["MOLECULE", "UNIT_OF_MEASUREMENT", "IC50"],
 "data": [
  ["COc1ccc(-c2nc3c4c(C(F)(F)F)cccc4nc(N[C@@H]4CCCCNC4=O)n3n2)cc1 [Example 172]", "M", "1.29e-08"],
  ["COc1cccc(-c2nc3c4ccccc4nc(N[C@H](C)C(=O)NCCO)n3n2)c1 [Example 111]", "M", "1.42e-08"]
]}

I = O=C1NCCNC[C@H]1Nc1nc2ccccc2c2nc(-c3ccc(OC4CC4)cc3)nn12 [Example 411]
II = O=C1NCCCC[C@@H]1Nc1nc2ccccc2c2nc(-c3ccccc3OC(F)F)nn12 [Example 471]
Task item: Of the two listed items, I and II , which carries the larger IC50 figure? Returns: label corresponding to the selected item.
Reply: I

###

- ASSAY_TARGET: AHR (Homo sapiens)
- Construct: U87 MG glioblastoma cells (ATCC #HTB-14) endogenously expressing AHR; endogenous in cells; host or cells: U87 MG glioblastoma cells (ATCC #HTB-14)
- EXPERIMENTAL_PROTOCOL: In vitro assay 1: antagonism in human cell line (AHR transactivation, firefly luciferase reporter, kynurenic acid prestimulated)
- Type: cell-based
- COND: AHR Antagonism Human IC50 [M]
ASSAY_METRIC: IC50 (M)

Worked examples follow.
{"columns": ["MOLECULE", "UNIT_OF_MEASUREMENT", "MEASURED_VALUE"],
 "data": [
  ["COc1ccc(-c2nc3c4cc(C(C)C)ccc4nc(N[C@@H]4CCCCNC4=O)n3n2)cc1", "M", "2.38e-07"],
  ["CC(C)Sc1cccc2c1nc(N[C@@H]1CCCCNC1=O)n1nc(-c3cnn(C)c3)nc21", "M", "1.32e-07"]
]}

A = COc1cccc(-c2nc3c4ccccc4nc(NC4CCNC4=O)n3n2)c1 (single isomer, unassigned) [Example 121]
B = CC[C@@H](Nc1nc2ccccc2c2nc(-c3ccccc3OC(F)(F)F)nn12)C(N)=O
C = O=C1NCCNC[C@H]1Nc1nc2c(Cl)cccc2c2nc(-c3cccc(F)c3)nn12
D = Cn1cc(-c2nc3c4cc(C(F)(F)F)ccc4nc(N[C@@H]4CCCCNC4=O)n3n2)cn1
Task item: # rank_down: sort by IC50, max first Please, when replying, give the labels in the order that was requested.
Reply: D, A, B, C
(D: 2.24e-06 M, A: 1.96e-07 M, B: 1.64e-08 M, C: 3.49e-09 M)
